# measurement.target: S100G (Homo sapiens)
# Sequence (P29377 2-79): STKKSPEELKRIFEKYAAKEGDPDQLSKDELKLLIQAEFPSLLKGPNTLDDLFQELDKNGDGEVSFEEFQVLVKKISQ
# assay: direct fluorescence polarization (FP), S100G
# condition.parameters: 50 nM labeled foldamer, 20 mM HEPES pH 7.5, 150 mM NaCl, 1 mM CaCl2, 0.5 mM TCEP, 0.01% Tween20, quadratic fit, mean ± SEM, three technical repeats, threshold 1 mM
Entries annotated with measured Kd

Use these answered entries as a reference point.
INSERT INTO results (compound, measurement_target, assay_metric, test_value) VALUES
  ('N=C(N)NCCC[C@@H](CC(=O)N[C@H]1CCCC[C@@H]1C(=O)NCC(=O)N[C@@H](CCCCNC(=O)c1ccc2c(c1)C1(OC2=O)c2ccc(O)cc2Oc2cc(O)ccc21)C(N)=O)NC(=O)[C@H]1CCCC[C@@H]1NC(=O)[C@H]1CCCC[C@@H]1NC(=O)C[C@H](CCCNC(=N)N)NC(=O)[C@H]1CCCC[C@@H]1N [fRR]', 'S100G (Homo sapiens)', 'Kd', '> 1000 µM'),
  ('CC(C)C[C@@H](CC(=O)N[C@H]1CCCC[C@@H]1C(=O)NCC(=O)N[C@@H](CCCCNC(=O)c1ccc2c(c1)C1(OC2=O)c2ccc(O)cc2Oc2cc(O)ccc21)C(N)=O)NC(=O)[C@H]1CCCC[C@@H]1NC(=O)[C@H]1CCCC[C@@H]1NC(=O)C[C@H](Cc1c[nH]c2ccccc12)NC(=O)[C@H]1CCCC[C@@H]1N [fWL]', 'S100G (Homo sapiens)', 'Kd', '> 1000 µM');

Turning now to a further record.
Exercise: Please give measured Kd of the following entry: CC(C)C[C@@H](CC(=O)N[C@H]1CCCC[C@@H]1C(=O)NCC(=O)N[C@@H](CCCCNC(=O)c1ccc2c(c1)C1(OC2=O)c2ccc(O)cc2Oc2cc(O)ccc21)C(N)=O)NC(=O)[C@H]1CCCC[C@@H]1NC(=O)[C@H]1CCCC[C@@H]1NC(=O)C[C@@H](NC(=O)[C@H]1CCCC[C@@H]1N)C(C)C [fVL]
Key: > 1000 µM

----------
So I've got Kd readings for S100A13 (Homo sapiens), take a look.

Known results for molecules:
INSERT INTO measurements (molecule, test_value) VALUES
  ('NC(=O)[C@H](CCCCNC(=O)c1ccc2c(c1)C1(OC2=O)c2ccc(O)cc2Oc2cc(O)ccc21)NC(=O)CNC(=O)[C@H]1CCCC[C@@H]1NC(=O)C[C@H](Cc1c[nH]c2ccccc12)NC(=O)[C@H]1CCCC[C@@H]1NC(=O)[C@H]1CCCC[C@@H]1NC(=O)C[C@H](Cc1c[nH]c2ccccc12)NC(=O)[C@H]1CCCC[C@@H]1N [fWW]', '> 1000 µM'),
  ('CC[C@H](C)[C@@H](CC(=O)N[C@H]1CCCC[C@@H]1C(=O)NCC(=O)N[C@@H](CCCCNC(=O)c1ccc2c(c1)C1(OC2=O)c2ccc(O)cc2Oc2cc(O)ccc21)C(N)=O)NC(=O)[C@H]1CCCC[C@@H]1NC(=O)[C@H]1CCCC[C@@H]1NC(=O)C[C@@H](NC(=O)[C@H]1CCCC[C@@H]1N)[C@@H](C)O [fTI]', '> 1000 µM');

# input for lookup
Exercise: Recall the reported Kd of C[C@@H](O)[C@@H](CC(=O)N[C@H]1CCCC[C@@H]1C(=O)N[C@H]1CCCC[C@@H]1C(=O)N[C@H](CC(=O)N[C@H]1CCCC[C@@H]1C(=O)NCC(=O)N[C@@H](CCCCNC(=O)c1ccc2c(c1)C1(OC2=O)c2ccc(O)cc2Oc2cc(O)ccc21)C(N)=O)Cc1c[nH]c2ccccc12)NC(=O)[C@H]1CCCC[C@@H]1N [fTW] when tested on S100A13 (Homo sapiens).
Sequence (Q99584 whole entry): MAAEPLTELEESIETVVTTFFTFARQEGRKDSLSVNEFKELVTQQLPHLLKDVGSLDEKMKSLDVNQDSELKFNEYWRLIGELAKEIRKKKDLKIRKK
Key: > 1000 µM

----------
# measurement.target: S100Z (Homo sapiens)
# Sequence (Q8WXG8 whole entry): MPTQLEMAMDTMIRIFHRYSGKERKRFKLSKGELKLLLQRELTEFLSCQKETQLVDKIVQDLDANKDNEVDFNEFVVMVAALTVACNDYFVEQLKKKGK
# assay: direct fluorescence polarization (FP), S100Z
# Type: binding
# condition.parameters: 50 nM labeled foldamer, 20 mM HEPES pH 7.5, 150 mM NaCl, 1 mM CaCl2, 0.5 mM TCEP, 0.01% Tween20, quadratic fit, mean ± SEM, three technical repeats, threshold 1 mM
assay.metric: Kd

INSERT INTO results (mol_smiles, measurement_target, assay_metric, test_value) VALUES
  ('CC[C@H](C)[C@@H](CC(=O)N[C@H]1CCCC[C@@H]1C(=O)N[C@H]1CCCC[C@@H]1C(=O)N[C@H](CC(=O)N[C@H]1CCCC[C@@H]1C(=O)NCC(=O)N[C@@H](CCCCNC(=O)c1ccc2c(c1)C1(OC2=O)c2ccc(O)cc2Oc2cc(O)ccc21)C(N)=O)CC(C)C)NC(=O)[C@H]1CCCC[C@@H]1N', 'S100Z (Homo sapiens)', 'Kd', '> 1000 µM');

Exercise: Provide Kd value for the following molecule: CC(C)C[C@@H](CC(=O)N[C@H]1CCCC[C@@H]1C(=O)NCC(=O)N[C@@H](CCCCNC(=O)c1ccc2c(c1)C1(OC2=O)c2ccc(O)cc2Oc2cc(O)ccc21)C(N)=O)NC(=O)[C@H]1CCCC[C@@H]1NC(=O)[C@H]1CCCC[C@@H]1NC(=O)C[C@H](Cc1c[nH]c2ccccc12)NC(=O)[C@H]1CCCC[C@@H]1N
Key: > 1000 µM

Exercise: Could you please provide reported Kd for CC[C@H](C)[C@@H](CC(=O)N[C@H]1CCCC[C@@H]1C(=O)NCC(=O)N[C@@H](CCCCNC(=O)c1ccc2c(c1)C1(OC2=O)c2ccc(O)cc2Oc2cc(O)ccc21)C(N)=O)NC(=O)[C@H]1CCCC[C@@H]1NC(=O)[C@H]1CCCC[C@@H]1NC(=O)C[C@@H](NC(=O)[C@H]1CCCC[C@@H]1N)[C@@H](C)O ? Thanks!
Key: > 1000 µM

Exercise: Supply measured Kd of NC(=O)[C@H](CCCCNC(=O)c1ccc2c(c1)C1(OC2=O)c2ccc(O)cc2Oc2cc(O)ccc21)NC(=O)CNC(=O)[C@H]1CCCC[C@@H]1NC(=O)C[C@H](Cc1ccccc1)NC(=O)[C@H]1CCCC[C@@H]1NC(=O)[C@H]1CCCC[C@@H]1NC(=O)C[C@H](Cc1ccc(O)cc1)NC(=O)[C@H]1CCCC[C@@H]1N in your reply.
Key: > 1000 µM

Exercise: Report Kd for N=C(N)NCCC[C@@H](CC(=O)N[C@H]1CCCC[C@@H]1C(=O)N[C@H]1CCCC[C@@H]1C(=O)N[C@H](CC(=O)N[C@H]1CCCC[C@@H]1C(=O)NCC(=O)N[C@@H](CCCCNC(=O)c1ccc2c(c1)C1(OC2=O)c2ccc(O)cc2Oc2cc(O)ccc21)C(N)=O)Cc1ccccc1)NC(=O)[C@H]1CCCC[C@@H]1N
Key: 890 µM

Exercise: Using known records, supply Kd for CC(C)C[C@@H](CC(=O)N[C@H]1CCCC[C@@H]1C(=O)NCC(=O)N[C@@H](CCCCNC(=O)c1ccc2c(c1)C1(OC2=O)c2ccc(O)cc2Oc2cc(O)ccc21)C(N)=O)NC(=O)[C@H]1CCCC[C@@H]1NC(=O)[C@H]1CCCC[C@@H]1NC(=O)C[C@@H](NC(=O)[C@H]1CCCC[C@@H]1N)C(C)C
Key: > 1000 µM

Exercise: Give a short answer stating reported Kd for NC(=O)[C@H](CCCCNC(=O)c1ccc2c(c1)C1(OC2=O)c2ccc(O)cc2Oc2cc(O)ccc21)NC(=O)CNC(=O)[C@H]1CCCC[C@@H]1NC(=O)C[C@H](Cc1c[nH]c2ccccc12)NC(=O)[C@H]1CCCC[C@@H]1NC(=O)[C@H]1CCCC[C@@H]1NC(=O)C[C@H](Cc1c[nH]c2ccccc12)NC(=O)[C@H]1CCCC[C@@H]1N .
Key: > 1000 µM

----------
# measurement.target: S100A8 (Homo sapiens, UniProt P05109)
# Sequence (P05109 whole entry): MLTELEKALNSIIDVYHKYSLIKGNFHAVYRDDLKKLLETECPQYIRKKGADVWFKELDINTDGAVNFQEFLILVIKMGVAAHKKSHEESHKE
# assay: direct fluorescence polarization (FP), S100A8
# Format: binding
# condition.parameters: S100A8, 50 nM labeled foldamer, 20 mM HEPES pH 7.5, 150 mM NaCl, 1 mM CaCl2, 0.5 mM TCEP, 0.01% Tween20, quadratic fit, mean ± SEM, three technical repeats, threshold 1 mM
assay.metric: Kd (µM)
The reply should be a number in µM, with the unit left off.

Exercise: Complete the entry with Kd for CC(C)C[C@@H](CC(=O)N[C@H]1CCCC[C@@H]1C(=O)NCC(=O)N[C@@H](CCCCNC(=O)c1ccc2c(c1)C1(OC2=O)c2ccc(O)cc2Oc2cc(O)ccc21)C(N)=O)NC(=O)[C@H]1CCCC[C@@H]1NC(=O)[C@H]1CCCC[C@@H]1NC(=O)C[C@H](Cc1c[nH]c2ccccc12)NC(=O)[C@H]1CCCC[C@@H]1N
Key: 74

----------
pKd: −log10 of the molar value.
Observed pKd, system S100A12 (Homo sapiens).

These recorded examples may help you get a feel for the data.
INSERT INTO assay_data (mol_smiles, assay_metric, test_value) VALUES
  ('NC(=O)[C@H](CCCCNC(=O)c1ccc2c(c1)C1(OC2=O)c2ccc(O)cc2Oc2cc(O)ccc21)NC(=O)CNC(=O)[C@H]1CCCC[C@@H]1NC(=O)C[C@H](Cc1ccccc1)NC(=O)[C@H]1CCCC[C@@H]1NC(=O)[C@H]1CCCC[C@@H]1NC(=O)C[C@H](Cc1ccc(O)cc1)NC(=O)[C@H]1CCCC[C@@H]1N', 'pKd', '< 3.00'),
  ('CC[C@H](C)[C@@H](CC(=O)N[C@H]1CCCC[C@@H]1C(=O)N[C@H]1CCCC[C@@H]1C(=O)N[C@H](CC(=O)N[C@H]1CCCC[C@@H]1C(=O)NCC(=O)N[C@@H](CCCCNC(=O)c1ccc2c(c1)C1(OC2=O)c2ccc(O)cc2Oc2cc(O)ccc21)C(N)=O)Cc1ccccc1)NC(=O)[C@H]1CCCC[C@@H]1N', 'pKd', 3.23);

Exercise: Name the value of pKd reported for NC(=O)[C@H](CCCCNC(=O)c1ccc2c(c1)C1(OC2=O)c2ccc(O)cc2Oc2cc(O)ccc21)NC(=O)CNC(=O)[C@H]1CCCC[C@@H]1NC(=O)C[C@H](Cc1c[nH]c2ccccc12)NC(=O)[C@H]1CCCC[C@@H]1NC(=O)[C@H]1CCCC[C@@H]1NC(=O)C[C@H](Cc1c[nH]c2ccccc12)NC(=O)[C@H]1CCCC[C@@H]1N when tested on S100A12 (Homo sapiens).
Sequence (P80511 whole entry): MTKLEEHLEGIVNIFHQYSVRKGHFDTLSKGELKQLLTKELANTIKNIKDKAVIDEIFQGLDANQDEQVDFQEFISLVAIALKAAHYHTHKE
Key: < 3.00

Exercise: Would you please give the reported pKd of CC(C)C[C@@H](CC(=O)N[C@H]1CCCC[C@@H]1C(=O)NCC(=O)N[C@@H](CCCCNC(=O)c1ccc2c(c1)C1(OC2=O)c2ccc(O)cc2Oc2cc(O)ccc21)C(N)=O)NC(=O)[C@H]1CCCC[C@@H]1NC(=O)[C@H]1CCCC[C@@H]1NC(=O)C[C@@H](NC(=O)[C@H]1CCCC[C@@H]1N)C(C)C with S100A12 (Homo sapiens)?
Key: < 3.00
